- assayName: qHTS assay to test for compound auto fluorescence at 590 nm (red) in HepG2 cell free culture (AID 720684); also: % is scaled to controls: 0 for no effect and ±100 for the full control effect
- experimentalParameters: cell-free medium autofluorescence, red 540/590 nm; series mostly up to 91.3 µM
Active and inactive are the calls of the source. Calls follow the shape of the dose curve; as a rule, active = well fitted curve in the direction sought with a large enough effect in the repeat runs; inconclusive = weak or mixed curves; inactive = flat fitted curve, though single readings scatter.
readoutKind: fluorescence, % of Rose Bengal

INSERT INTO results (compound, result) VALUES
  ('COCCCC/C(=N\OCCN)c1ccc(C(F)(F)F)cc1', 'inactive'),
  ('CCOc1nc2cccc(C(=O)OC(C)OC(=O)OC3CCCCC3)c2n1Cc1ccc(-c2ccccc2-c2nn[nH]n2)cc1 (centres undefined)', 'inactive'),
  ('O=C(N/N=C/c1ccccc1O)c1ccncc1', 'inactive'),
  ('NNc1nc(-c2ccccc2)cs1', 'inactive'),
  ('CC(C)OC(=O)c1cc2c(OCC(O)CNC(C)(C)C)cccc2[nH]1 (centres undefined)', 'inactive'),
  ('CCCCCCCCS(=O)C(C)Cc1ccc2c(c1)OCO2 (centres undefined)', 'inactive'),
  ('[Cl][Au]([Cl])[Cl]', 'inactive'),
  ('N=C1N=C(N)c2ccccc21', 'inactive'),
  ('O=C(c1ccc(F)cc1)C1CCN(CCn2c(=O)[nH]c3ccccc3c2=O)CC1', 'inactive'),
  ('Cc1ccc(-n2nc(C(C)(C)C)cc2NC(=O)Nc2ccc(OCCN3CCOCC3)c3ccccc23)cc1', 'inactive'),
  ('Clc1ccc2cc3ccccc3cc2c1', 'inactive'),
  ('Clc1ccccc1C(c1ccccc1)(c1ccccc1)n1ccnc1', 'inactive'),
  ('CCC(N)(CO)CO', 'inactive'),
  ('CC[C@H](c1ccc(O)cc1)[C@@H](CC)c1ccc(O)cc1', 'inactive'),
  ('Nc1ccc2cc(S(=O)(=O)O)cc(O)c2c1N=Nc1ccccc1C(F)(F)F', 'inactive'),
  ('O=c1cc(-c2ccc(O)cc2)oc2cc(O)cc(O)c12', 'inactive'),
  ('C[C@H]1[C@H]2CC[C@H]3[C@@H]4CC=C5C[C@@H](N(C)C)CC[C@]5(C)[C@H]4CC[C@]23CN1C', 'inactive'),
  ('CC1(C)CCC(C)(C)c2cc(C(=O)Nc3ccc(C(=O)O)cc3)ccc21', 'inactive'),
  ('CC(=O)SC[C@@H](Cc1ccccc1)C(=O)NCC(=O)OCc1ccccc1', '-0.444% [at 18.6 µM] (inactive)'),
  ('CCCCCCCCCCCCc1ccc(O)cc1', 'inactive'),
  ('C[n+]1ccn(Cc2ccccc2)c1', 'inactive'),
  ('O=C(Nc1cccc([N+](=O)[O-])c1)c1cc2ccccc2cc1O', 'inactive'),
  ('Cc1[nH]cnc1C[C@H]1CCc2c(C)c3ccccc3n2C1=O', 'inactive'),
  ('CC/C(=C(\c1ccc(O)cc1)c1ccc(OCCN(C)C)cc1)c1ccccc1', 'inactive');

---

- assayName: Caspase-3/7 induction in HepG2 cells by small molecules, qHTS cell viability counter screen (AID 1346981); also: nearly all actives have a fitted effect of over 30% in size
- experimentalParameters: CellTiter-Fluor fluorescence, 17 h; series mostly up to 92.4 µM
Results filed as inconclusive are left out. Calls of active or inactive are those of the source. Calls follow the shape of the dose curve; as a rule, active = well fitted cell-killing curve with a large enough effect in the repeat runs; inconclusive = weak or mixed curves, or effect the other way; inactive = flat fitted curve, though single readings scatter.
Possible outcomes: active, inactive

INSERT INTO results (compoundstructure, labelclass) VALUES
  ('C=C(C)C(=O)OCC[N+](C)(C)C', 'inactive'),
  ('CN(C)C(=O)C1(N2CCCCC2)CCN(CC[C@@]2(c3ccc(Cl)c(Cl)c3)CN(C(=O)c3ccccc3)CCO2)CC1', 'active'),
  ('CC/C(=C(\c1ccc(O)cc1)c1ccc(OCCN(C)C)cc1)c1ccccc1', 'active'),
  ('CCC1=C[C@@H]2CN(C1)Cc1c([nH]c3ccccc13)[C@@](C(=O)OC)(c1cc3c(cc1OC)N(C)[C@H]1[C@@](O)(C(=O)OC)[C@H](OC(C)=O)[C@]4(CC)C=CCN5CC[C@]31[C@@H]54)C2', 'active'),
  ('O=[N+]([O-])c1ccccc1Nc1ccccc1', 'inactive'),
  ('CN(C/C=C/C#CC(C)(C)C)Cc1cccc2ccccc12', 'inactive'),
  ('Clc1ccc2cc3ccccc3cc2c1', 'inactive'),
  ('O=C1C=CC(=O)N1c1ccc(Cc2ccc(N3C(=O)C=CC3=O)cc2)cc1', 'active'),
  ('CCCCCCCCCCn1cc[n+](CCCCCCCCCC)c1C', 'active'),
  ('CCCCCCCCCCCC[N+](C)(C)CCCCCCCCCCCC', 'active');
